targetOrSystem: human Ang-2 mutated at positions 365 and 367 (human) (UniProt O15123)
Sequence (O15123 19-496, change not shown): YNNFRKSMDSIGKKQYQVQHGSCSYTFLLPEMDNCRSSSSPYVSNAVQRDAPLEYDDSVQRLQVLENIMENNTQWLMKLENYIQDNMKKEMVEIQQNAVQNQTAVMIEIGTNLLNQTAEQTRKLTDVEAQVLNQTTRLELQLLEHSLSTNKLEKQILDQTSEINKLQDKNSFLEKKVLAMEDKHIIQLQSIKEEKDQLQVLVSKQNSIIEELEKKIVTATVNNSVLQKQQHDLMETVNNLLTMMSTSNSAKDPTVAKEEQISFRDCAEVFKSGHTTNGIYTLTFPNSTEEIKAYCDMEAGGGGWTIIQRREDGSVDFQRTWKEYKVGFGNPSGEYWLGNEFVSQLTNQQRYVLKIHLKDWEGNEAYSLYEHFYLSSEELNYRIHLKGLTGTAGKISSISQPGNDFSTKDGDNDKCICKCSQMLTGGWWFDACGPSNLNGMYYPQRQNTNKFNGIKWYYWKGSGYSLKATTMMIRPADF
protocolText: ELISA
# Lookup of reported percent binding compared to human Ang-2 keyed by entry
Numbers only here, please. The scale is %.

[
  {
    "binder": "mAb 5.88.3 (antibody, V domains shown) VH: EVQMVESGGGLVQPGGSLRLSCAASGFTLRSYWMSWVRQAPGKGLEWVANIKEDGSEKYHVDSVKGRFTISRDNAENSLFLQMSSLRAEDTAVYYCARDMEASAGLFDYWGQGTLVTVSS VL: EIVMTQSPATLSVSPGERAILSCRASQSISSNLAWYQQKPGQAPRLLIYGASTRATGIPARFSGSGSGTEFTLTISSLQSEDFAVYYCQQYNYWWTFGQGTKVEIKR",
    "percent binding compared to human Ang-2 / %": 100
  }
]

Measured percent binding compared to human Ang-2 of mAb 5.39.1 (antibody, V domains shown) VH: QVQLVQSGAEVTKPGASVKVSCKASGYTFTAYHMYWVRQAPGQGLEWMGWINPNSGGTNYAQKFQGRVTMTRDTSISTAYMELSRLRSDDSPVYYCARDQGIAAAGPFDYWGQGTLVTVSS VL: EIVMTQSPATLSVSPGDRATLSCRASQSVSSNFAWYQQKPGQAPRLLIYGSSTRATGIPARFSGSGSGTEFTLTISSLQSEDFAVYYCQQYHYWWTFGQGTKVEFKR : 100

Quick note, percent binding compared to human Ang-2 for mAb 6.3.1 (antibody, V domains shown) VH: QVQLVQSGAEVKKPGASVKVSCKASGYTFTGYFMHWVPQAPGQGLEWMGWINPNSGGTNYAQNFQGRVTMTRDTSISTAYMELSRLRSDDTPVYYCARDPWQNWNSYFDYWGQGTLVTVSS VL: DIQMTQSPSSLSASVGDRVTITCRASQSIRSYLNWYQQKPGKAPKVLIYAASSLQSGVPSRFSGSGSGTDFTLTISSLQPEDFATYYCQQSYSTLCSFGQGTKLEIKR landed at 100

This collection of values is drawn from patent US20060246071A1.
